Measured melting point, listed per entry for reference.

{"compound": "CC(=O)Nc1ncc(C=O)s1", "melting point": "235 to 236 °C"}
{"compound": "COC(=O)C1(CC#N)C(=O)N(C)C(=O)c2ccccc21 (stereo unspecified)", "melting point": "120 to 122 °C"}
{"compound": "NC(=O)C1(c2c(F)cccc2Cl)CC1", "melting point": "98 to 102 °C"}
{"compound": "CC(C)CC(CC1CCCCC1)Cn1ccnc1 (stereo unspecified)", "melting point": "119 to 120 °C"}
{"compound": "COC(=O)c1ccc(C2CNN=C2c2ccc(Cl)cc2)cc1 (stereo unspecified)", "melting point": "155 to 159 °C"}
{"compound": "CCCCOc1cc(/C=C(\\OCC)C(=O)O)ccc1OCCc1ccc(OS(C)(=O)=O)c(Cl)c1", "melting point": "113 °C"}
